All values here come from patent US20260042764A1.

# tested target: Avi-KRAS G12R (1-169) GppNHp/RAF1 RBD-3xFLAG (52-151) (Homo sapiens, UniProt P01116, G12R)
# Construct: Avi-KRAS G12R (1-169)
# Sequence (P01116 1-169 isoform P01116-2 G12R): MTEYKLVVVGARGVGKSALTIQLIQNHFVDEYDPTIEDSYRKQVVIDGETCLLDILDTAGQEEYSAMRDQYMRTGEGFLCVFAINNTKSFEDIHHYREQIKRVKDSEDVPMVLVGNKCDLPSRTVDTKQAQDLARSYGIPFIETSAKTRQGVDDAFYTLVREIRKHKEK
# assay procedure: Raf1-KRAS G12R-GppNHP disruption HTRF assay (Biological Example 1)
# Format: binding
# cond: KRAS G12R-GppNHp/RAF1 RBD HTRF
pIC50: −log10 of the molar value.
Listing of entries alongside the reported pIC50.

compound	pIC50
C[C@@H]1[C@H](N(C)c2nc(OC[C@]34C[C@@H](F)CN3CC3(CC3)C4)nc3c(F)c(-c4ccc(F)c5sc(N)c(C#N)c45)c(C(F)(F)F)cc23)CCN1C(=O)C1CC1	6.00 to 7.00
N#Cc1c(N)sc2c(F)ccc(-c3c(C(F)(F)F)cc4c(N5CC6OCC5C6F)nc(OC[C@@]56CCCN5C[C@H](F)C6)nc4c3F)c12 (some centres unmarked)	6.00 to 7.00
CCN(c1nc(OC[C@@]23CCCN2C[C@H](F)C3)nc2c(F)c(-c3ccc(F)c4sc(N)c(C#N)c34)c(C(F)(F)F)cc12)[C@H]1C[C@@H](C)N(C(=O)OC)C1 (atropisomer, axis not shown)	> 7.00
C[C@H]1CN(c2nc(OC[C@@]34CCCN3C[C@H](F)C4)nc3c(F)c(-c4ccc(F)c5sc(N)c(C#N)c45)c(C(F)(F)F)cc23)Cc2cc(C(=O)N(C)C)nn21	6.00 to 7.00
CCC(=O)N1CC[C@@H](N(CC)c2nc(OC[C@@]34CCCN3C[C@H](F)C4)nc3c(F)c(-c4ccc(F)c5sc(N)c(C#N)c45)c(C(F)(F)F)cc23)C1	6.00 to 7.00

Assign pIC50 to the following record: `N#Cc1c(N)sc2c(F)ccc(-c3c(C(F)(F)F)cc4c(N5CC6CC(C5)O6)nc(OC[C@@]56CCCN5C[C@@]5(CC5(F)F)C6)nc4c3F)c12`
5.00 to 6.00

Assign pIC50 to the following record: `CC(C)C(=O)N1CC[C@@H](N(C)c2nc(OC[C@@]34CCCN3C[C@H](F)C4)nc3c(F)c(-c4ccc(F)c5sc(N)c(C#N)c45)c(C(F)(F)F)cc23)[C@@H]1C`
5.00 to 6.00

Assign pIC50 to the following record: `COC[C@H]1CN(c2nc(OC[C@@]34CCCN3C[C@H](F)C4)nc3c(F)c(-c4ccc(F)c5sc(N)c(C#N)c45)c(C(F)(F)F)cc23)CCO1`
6.00 to 7.00

Assign pIC50 to the following record: `CCN(c1nc(OC[C@@]23CCCN2C[C@H](F)C3)nc2c(F)c(-c3ccc(F)c4sc(N)c(C#N)c34)c(C(F)(F)F)cc12)[C@@H]1C[C@@H]2CCC(=O)N2C1`
5.00 to 6.00

Assign pIC50 to the following record: `N#Cc1c(N)sc2c(F)ccc(-c3c(C(F)(F)F)cc4c(N5CCn6nc(C(=O)N7CC(O)C7)cc6C5)nc(OC[C@@]56CCCN5C[C@H](F)C6)nc4c3F)c12`
6.00 to 7.00

Assign pIC50 to the following record: `N#Cc1c(N)sc2c(F)ccc(-c3c(C(F)(F)F)cc4c(N5CCc6oncc6C5)nc(OC[C@@]56CCCN5C[C@H](F)C6)nc4c3F)c12`
6.00 to 7.00

Assign pIC50 to the following record: CCN(c1nc(OC[C@@]23CCCN2C[C@H](F)C3)nc2c(F)c(-c3ccc(F)c4sc(N)c(C#N)c34)c(C(F)(F)F)cc12)[C@@H]1C[C@@H](C)N(C(=O)OC)C1 (atropisomer, axis not shown)
6.00 to 7.00

Assign pIC50 to the following record: `CCC(=O)N1CC[C@@H](N(CC)c2nc(OC[C@@]34CCCN3C[C@H](F)C4)nc3c(F)c(-c4ccc(F)c5sc(N)c(C#N)c45)c(Cl)cc23)[C@H]1C`
6.00 to 7.00

Assign pIC50 to the following record: `N#Cc1c(N)sc2c(F)ccc(-c3c(C(F)(F)F)cc4c(N5CCn6nc(C(=O)N7CC[C@H](O)C7)cc6C5)nc(OC[C@@]56CCCN5C[C@H](F)C6)nc4c3F)c12`
6.00 to 7.00

Assign pIC50 to the following record: `N#Cc1c(N)sc2c(F)ccc(-c3c(C(F)(F)F)cc4c(N5CCCN6C(=O)CC[C@H]6C5)nc(OC[C@@]56CCCN5C[C@H](F)C6)nc4c3F)c12`
5.00 to 6.00

Assign pIC50 to the following record: `CCC(=O)N1CC[C@@H](N(CC)c2nc(OC[C@@]34CCCN3C[C@H](F)C4)nc3c(F)c(-c4ccc(F)c5sc(N)c(C#N)c45)c(Cl)cc23)[C@@H]1C`
5.00 to 6.00

Assign pIC50 to the following record: CCN(c1nc(OC[C@@]23CCCN2C[C@H](F)C3)nc2c(F)c(-c3ccc(F)c4sc(N)c(C#N)c34)c(C(F)(F)F)cc12)[C@H]1CCN(C(=O)C(C)(C)C)C1 (atropisomer, axis not shown)
> 7.00

Assign pIC50 to the following record: CN(c1nc(OC[C@@]23CCCN2C[C@H](F)C3)nc2c(F)c(-c3ccc(F)c4sc(N)c(C#N)c34)c(C(F)(F)F)cc12)C1CCCS(=O)(=O)C1 (some centres unmarked)
6.00 to 7.00

Assign pIC50 to the following record: `CN1C[C@H](N(C)c2nc(OC[C@@]34CCCN3C[C@H](F)C4)nc3c(F)c(-c4ccc(F)c5sc(N)c(C#N)c45)c(C(F)(F)F)cc23)CCC1=O`
5.00 to 6.00

Assign pIC50 to the following record: CCN(c1nc(OC[C@@]23CCCN2C[C@H](F)C3)nc2c(F)c(-c3ccc(F)c4sc(N)c(C#N)c34)c(C(F)(F)F)cc12)[C@H]1CCN(C(=O)N2CCOCC2)C1 (atropisomer, axis not shown)
> 7.00
